Source listed as patent US20240208992A1.

Emax values, listed per item
biological target: human F508del-CFTR (Homo sapiens, UniProt P13569, DEL508-508); test: F508del-CFTR cell surface expression (corrector activity), DiscoveRx ß-galactosidase complementation chemiluminescence assay in recombinant U2OS cell line; conditions: U2OS, in relation to the Emax of the corrector lumacaftor (=100%); U2OS cell line, 16h compound incubation; arithmetic mean values;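 also: U2OS cells co-expressing ProLink-tagged F508del-CFTR and a membrane-anchored enzyme acceptor, where more surface CFTR restores β-galactosidase activity measured by chemiluminescence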
Sequence (P13569 with tags, fused parts or gaps DEL508-508): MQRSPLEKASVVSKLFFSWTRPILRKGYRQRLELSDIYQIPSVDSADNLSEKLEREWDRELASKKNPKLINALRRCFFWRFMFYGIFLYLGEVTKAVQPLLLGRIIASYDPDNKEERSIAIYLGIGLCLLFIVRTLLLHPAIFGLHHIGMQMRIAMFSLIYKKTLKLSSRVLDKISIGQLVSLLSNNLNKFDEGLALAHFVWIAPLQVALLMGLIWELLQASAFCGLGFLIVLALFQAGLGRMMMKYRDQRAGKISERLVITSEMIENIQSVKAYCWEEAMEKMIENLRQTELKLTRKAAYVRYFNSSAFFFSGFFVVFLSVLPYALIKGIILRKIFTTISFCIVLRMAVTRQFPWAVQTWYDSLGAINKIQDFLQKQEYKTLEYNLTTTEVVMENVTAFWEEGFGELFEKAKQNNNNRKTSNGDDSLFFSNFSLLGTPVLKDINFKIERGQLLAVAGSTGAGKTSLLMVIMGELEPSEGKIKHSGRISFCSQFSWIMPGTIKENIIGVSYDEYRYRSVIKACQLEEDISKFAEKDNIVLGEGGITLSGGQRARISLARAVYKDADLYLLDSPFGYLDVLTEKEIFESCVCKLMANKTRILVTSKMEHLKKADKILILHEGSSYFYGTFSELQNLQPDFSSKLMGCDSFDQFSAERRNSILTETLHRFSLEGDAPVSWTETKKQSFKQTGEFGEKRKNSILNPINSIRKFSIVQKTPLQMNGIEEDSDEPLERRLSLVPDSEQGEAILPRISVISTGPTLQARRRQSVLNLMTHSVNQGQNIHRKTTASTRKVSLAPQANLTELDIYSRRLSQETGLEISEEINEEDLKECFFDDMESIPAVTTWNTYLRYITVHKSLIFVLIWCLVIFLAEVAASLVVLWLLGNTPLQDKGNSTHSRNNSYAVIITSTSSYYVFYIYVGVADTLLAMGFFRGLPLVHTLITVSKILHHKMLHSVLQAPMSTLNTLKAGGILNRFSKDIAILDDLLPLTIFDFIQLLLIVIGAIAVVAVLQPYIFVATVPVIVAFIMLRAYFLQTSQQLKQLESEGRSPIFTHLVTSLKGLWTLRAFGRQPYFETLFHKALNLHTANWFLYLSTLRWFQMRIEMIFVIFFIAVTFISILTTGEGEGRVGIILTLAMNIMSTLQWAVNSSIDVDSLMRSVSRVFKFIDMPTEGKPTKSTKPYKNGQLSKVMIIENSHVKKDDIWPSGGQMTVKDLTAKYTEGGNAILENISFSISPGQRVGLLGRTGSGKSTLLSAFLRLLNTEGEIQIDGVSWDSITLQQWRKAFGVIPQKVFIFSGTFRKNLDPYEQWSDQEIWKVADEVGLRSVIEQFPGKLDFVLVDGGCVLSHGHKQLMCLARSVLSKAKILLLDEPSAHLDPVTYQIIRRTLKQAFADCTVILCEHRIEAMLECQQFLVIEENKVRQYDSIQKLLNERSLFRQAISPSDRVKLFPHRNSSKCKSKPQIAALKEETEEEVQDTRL

- compound: "COc1cccc2c1C(=O)N[C@H](C(=O)NCC[C@H]1CCCCO1)CC(=O)N(C)[C@@H](CC(C)C)C(=O)N(CCC1CCCCC1)CC(=O)N[C@H](Cc1ccccc1)CO2 (racemic)"
  Emax: "130%"
- compound: "COc1cccc(CCNC(=O)[C@@H]2CC(=O)N(C)[C@@H](CC3CCCC3)C(=O)N(CC[C@H]3CCCCO3)CC(=O)N[C@H](Cc3ccccc3)COc3ccc4ccccc4c3C(=O)N2)c1 (racemic)"
  Emax: "186%"
- compound: "COc1cccc(CCNC(=O)[C@@H]2CC(=O)N(C)[C@@H](CC(C)C)C(=O)N(C)CC(=O)N[C@H](Cc3ccccc3)COc3cc4ccccc4cc3C(=O)N2)c1"
  Emax: "153%"
- compound: "CC(C)C[C@H]1C(=O)N(C)C2(CC2)C(=O)N[C@H](Cc2ccccc2)COc2cnc3ccc(F)cc3c2C(=O)N[C@H](C(=O)NCCc2cc(C3CC3)on2)CC(=O)N1C"
  Emax: "381%"
- compound: "CN1C(=O)C[C@@H](C(=O)NCCc2ccc3c(c2)OCO3)NC(=O)c2c(ccc3ccccc23)OC[C@@H](Cc2ccccc2)NC(=O)CN(CC[C@H]2CCCCO2)C(=O)[C@@H]1CC1CCC1"
  Emax: "183%"
- compound: "CC(C)C[C@H]1C(=O)N(C)C2(CC2)C(=O)N[C@H](Cc2ccccc2)COc2cnc3ccc(F)cc3c2C(=O)N[C@H](C(=O)NCCc2cccc(S(C)(=O)=O)c2)CC(=O)N1C"
  Emax: "238%"
- compound: "COc1cccc(CCNC(=O)[C@@H]2CC(=O)N(C)[C@@H](CC(C)C)C(=O)N(C)CC(=O)N[C@H](Cc3ccccc3)COc3cnc4c(F)cccc4c3C(=O)N2)c1"
  Emax: "299%"
